Molecular target: SARS-CoV-2 3CLpro (Severe acute respiratory syndrome coronavirus 2, UniProt P0DTD1)
Experiment: biochemical
Assay type: biochemical
Parameters: unit not given here
Settings: sheet LOPAC_screen_w_protease; primary screen with protease, compound at 5 µM; replicate 1
Threshold rule: Replicate_1 greater than or equal to 3 is Condition met; below that, Condition not met.

Recorded results for 8 molecules are shown here.
• CCN(CC)c1ncnc2c1ncn2[C@@H]1O[C@H](COP(=O)([O-])OP(=O)([O-])C(Br)(Br)P(=O)([O-])O)[C@@H](O)[C@H]1O.[Na+].[Na+].[Na+] [ARL 67156 trisodium salt] = Condition not met
• Nc1ncnc2c1ncn2C1CCCC1 = Condition not met
• N#Cc1c(-c2ccccc2)no[n+]1[O-] = Condition met
• Cn1c(=O)c2[nH]c(-c3ccc(S(=O)(=O)O)cc3)nc2n(C)c1=O = Condition not met
• CCCCCCCCCCCCCCCC(=O)OC(CC(=O)O)C[N+](C)(C)C.[Cl-] (racemic) [Palmitoyl-DL-Carnitine chloride] = Condition not met
• CC(C)(C)c1onc(OCP(=O)(O)O)c1CC(N)C(=O)O (stereo not shown) = Condition met
• CCCCCCCCCCCCCCCCCC(=O)NCC(COP(=O)([O-])OCC[N+](C)(C)C)OCC (racemic) = Condition met
• CCN1CCc2nc(N)oc2CC1.Cl.Cl [B-HT 933 dihydrochloride] = Condition not met

Prompt: Given Cl.Clc1ccc(Cn2c(CN3CCCC3)nc3ccccc32)cc1 [Clemizole hydrochloride] , state whether its Replicate_1 is at least 3.
Response: Condition not met

Prompt: Given CC(C)C1C2CCC(C2)C1N.Cl (stereo not shown) [AGN 192403 hydrochloride] , state whether its Replicate_1 is at least 3.
Response: Condition not met

###

Molecular target: UniProt P0DTD1
Experiment: biochemical
Assay type: biochemical
Details: 4 h, sheet LOPAC_screen_w_protease; LOPAC1280 primary screen with protease, 5 µM compound; mean of the two replicates; read-out: mean
Where a name gives a salt, the structure may show the parent alone.
Threshold rule: inhibition at 5 µM greater than or equal to 5% is condition met; below that, condition not met.

Recorded results for 3 compounds are shown here.
- Cn1ccnc1 [1-Methylimidazole]: condition not met
- Cc1ccccc1N1C(=O)c2cc(S(N)(=O)=O)c(Cl)cc2NC1C (stereo not drawn) [Metolazone]: condition met
- Cc1[nH]c(=O)c(C#N)cc1-c1ccncc1 [Milrinone]: condition not met

Prompt: Given O=c1[nH]c2ccccc2n1CCCN1CCN(C(c2ccccc2)c2ccccc2)CC1 [Oxatomide] , state whether its inhibition at 5 µM is at least 5%.
Response: condition met

Prompt: Given COc1ccc(Cc2nccc3cc(OC)c(OC)cc23)cc1OC [Papaverine hydrochloride] , state whether its inhibition at 5 µM is at least 5%.
Response: condition met

Prompt: Given CN(C)c1ccc(O)c2c1C[C@H]1C[C@H]3[C@H](N(C)C)C(O)=C(C(N)=O)C(=O)[C@@]3(O)C(O)=C1C2=O [Minocycline hydrochloride] , state whether its inhibition at 5 µM is at least 5%.
Response: condition met

Prompt: Given CCOC(=O)C1=C(C)NC(C)=C(C(=O)OC)C1c1cccc([N+](=O)[O-])c1 (stereo not drawn) [Nitrendipine] , state whether its inhibition at 5 µM is at least 5%.
Response: condition not met

Prompt: Given Cc1ccccc1CNc1ncnc2c1ncn2[C@@H]1O[C@H](CO)[C@@H](O)[C@H]1O [Metrifudil] , state whether its inhibition at 5 µM is at least 5%.
Response: condition not met

Prompt: Given CC1(C)CCC(NC(=O)[C@@H](N)CCC(=O)O)CC1 [CR 2249] , state whether its inhibition at 5 µM is at least 5%.
Response: condition met

Prompt: Given CNCCC(Oc1ccccc1OC)c1ccccc1 (stereo not drawn) [Nisoxetine hydrochloride] , state whether its inhibition at 5 µM is at least 5%.
Response: condition not met

###

Target: SARS-CoV-2 3CLpro (Severe acute respiratory syndrome coronavirus 2)
Assay: biochemical
Format: biochemical
Design: unit not given here
Where a name gives a salt, the structure may show the parent alone.
The threshold is 2. Values of Replicate_2 beneath it are tagged Yes; values meeting or exceeding it are tagged No.

- S=C=Nc1ccc2oc(C3=NCCN3)cc2c1 [BU99006]: Yes
- Cl.O=C(O)C1=CCCN(CCON=C(c2ccccc2)c2ccccc2)C1 [NO-711 hydrochloride]: Yes
- CCCN(CCC)C(=O)Cc1c(-c2ccc(Cl)cc2)nc2c(Cl)cc(Cl)cn12 [CB34]: No
- C=CCN1C[C@H](C)N([C@H](c2ccc(C(=O)N(CC)CC)cc2)c2cccc(OC)c2)C[C@H]1C [SNC80]: Yes
- N[C@@H]1C[C@H]1c1ccccc1 [Tranylcypromine hydrochloride]: Yes
- CC1CCN=C(N)S1.Cl (racemic) [(±)-AMT hydrochloride]: Yes
- COc1ccc2cc([C@H](C)C(=O)[O-])ccc2c1.[Na+] [(-)-Naproxen sodium]: Yes
- O=[N+]([O-])c1cc2nc(O)c(O)nc2cc1[N+](=O)[O-] [DNQX]: No
- COc1ccc2c(c1)[C@@]13CCCC[C@H]1[C@@H](C2)NCC3.Cl [3-Methoxy-morphanin hydrochloride]: No
- COc1cc(CC(C)N)c(OC)cc1I.Cl (racemic) [(±)-DOI hydrochloride]: No

Prompt: Does the reported Replicate_2 of CCCCCCCCCCCCCCCCOCC(COCC(F)(F)F)OP(=O)(O)OC (stereo not shown) [MJ33] stay below 2?
Response: Yes

Prompt: Does the reported Replicate_2 of C[N+](C)(C)CCO.[Br-] [Choline bromide] stay below 2?
Response: No

Prompt: Does the reported Replicate_2 of O=C(c1ccc2c(c1)OCCO2)N1CCCCC1 [CX 546] stay below 2?
Response: Yes

Prompt: Does the reported Replicate_2 of `N[C@H](C(=O)O)[C@H]1C[C@@H]1C(=O)O` stay below 2?
Response: Yes

Prompt: Does the reported Replicate_2 of CN1CCc2ccccc2Cc2[nH]c3ccccc3c2CC1 [LE 300] stay below 2?
Response: Yes

Prompt: Does the reported Replicate_2 of C1CNCCN1.COc1cc(C(O)CO)ccc1O.COc1cc(C(O)CO)ccc1O (stereo not shown) [MHPG piperazine] stay below 2?
Response: No

###

Biological target: SARS-CoV-2 3CLpro (Severe acute respiratory syndrome coronavirus 2, UniProt P0DTD1)
Assay: biochemical
Type: biochemical
Settings: LOPAC1280 primary screen with protease, 5 µM compound, replicate 1
Kindly state Replicate_1 (LOPAC_screen_w_protease) for each of the entries shown.
Answers are plain numbers.

* N.N.N.N.N.N.N.N.N.N.N.N.N.N.[Cl-].[Cl-].[Cl-].[Cl-].[Cl-].[Cl-].[O-2].[O-2].[Ru+3].[Ru+3].[Ru+4] | 2.607

For each entry beneath this line, provide reported Replicate_1 (LOPAC_screen_w_protease).
1. Nc1nc(Cl)nc2c1ncn2[C@@H]1O[C@H](CO)[C@@H](O)[C@H]1O
2. OC(CN1CCN(c2cccc(Cl)c2)CC1)C(c1ccccc1)c1ccccc1 (centres unmarked)
3. O=C(O)[C@@H]1C[C@H](C(=O)O)N1 [cis-Azetidine-2,4-dicarboxylic acid]
4. COc1ccc2c(c1OC)C(=O)O[C@@H]2[C@H]1c2c(cc3c(c2OC)OCO3)CCN1C.Cl [Noscapine hydrchloride]
5. CCC(=O)N1CCN(C(=O)c2ccccc2)CC1
6. CN(C(=O)Cc1ccc(Cl)c(Cl)c1)C(CN1CCCC1)c1cccc(OCC(=O)O)c1.Cl (centres unmarked) [ICI 204,448 hydrochloride]
7. Nc1ncnc2c1ncn2[C@@H]1O[C@H](C(=O)NC2CC2)[C@@H](O)[C@H]1O

Response:
[1.21, 0.6201, 1.545, 0.9869, 0.6823, 3.897, 1.713]

For each entry beneath this line, provide reported Replicate_1 (LOPAC_screen_w_protease).
1. CCc1c(C(=O)OC)ncc2[nH]c3cc(OC)c(OC)cc3c12
2. CC(=O)NBr [N-Bromoacetamide]
3. CCCCCCCCCCCCCCCCCCNC(=O)OCC(COP(=O)([O-])OCC[n+]1ccsc1)OC (centres unmarked)
4. NCC(=O)NCCC(c1ccccc1)c1ccccc1 [N-(3,3-Diphenylpropyl)glycinamide]
5. OC[C@H]1O[C@@H](n2cnc3c(NC4CCCCC4)ncnc32)[C@H](O)[C@@H]1O
6. C=CCn1c(=O)c2c(nc(-c3ccc(S(=O)(=O)O)cc3)n2C)n(C)c1=O
7. Cc1ccc([N+](=O)[O-])cc1S(=O)(=O)N(C)C

Response:
1: 4.217; 2: 1.503; 3: -0.07699; 4: 1.194; 5: 2.337; 6: 2.434; 7: 1.025

For each entry beneath this line, provide reported Replicate_1 (LOPAC_screen_w_protease).
1. O=C1C=CC(=O)C=C1
2. Cl.O=C(Cc1ccc(Cl)c(Cl)c1)N1CCCCC1CN1CCCC1 (centres unmarked) [BRL 52537 hydrochloride]

Response:
[1.8862, 2.192]
